System: B-CLL cells
Experiment: IC50 determination (XTT dye, 48 h)
Format: cell-based, human
Settings: Homo sapiens, B-CLL, read-out: double IC50 determined for fludarabine; printed as the double IC50; unclear whether 3µM is the IC50 or its double
Assay metric: pIC50
Convention used: pIC50 is expressed as -log10 of the molar concentration.

pIC50 lookup needed for `Nc1nc(F)nc2c1ncn2[C@@H]1O[C@H](CO)[C@@H](O)[C@@H]1O` , thanks.
5.52

// provenance: patent EP2397149A1
